# Tested on: Plasmodium falciparum
# measurementNotes: Antiplasmodial activity against chloroquine-sensitive Plasmodium falciparum D6 assessed as inhibition of parasite LDH activity after 72 hrs by malstat reagent method
# Format: functional, organism-based
# protocolConditions: D6, 72 h
Listed here: items and their measured pIC50.
In simple prose, pIC50 is minus the logarithm base ten of a concentration in moles per litre.

Worked examples, 3 molecules total:
O=C1C2C(C(=O)N1C1CCCCC1)[C@H]1CC[C@@H]2O1 (stereo not given in full) :: 3.85
O=C(O)CCCCCNC(=O)C1C(C(=O)O)[C@@H]2CC[C@H]1O2 (stereo not given in full) :: 3.59
CCCCCCCCCCN1C(=O)C2C(C1=O)[C@H]1CC[C@@H]2O1 (stereo not given in full) :: 3.43

Tell me the measured pIC50 of CCCCN1C(=O)C2C(C1=O)[C@H]1CC[C@@H]2O1 (stereo not given in full) , please.
5.05

Tell me the measured pIC50 of O=C(O)C1C(C(=O)NCc2ccc(F)c(F)c2)[C@H]2CC[C@@H]1O2 (stereo not given in full) , please.
3.33

Tell me the measured pIC50 of O=C(O)C1C(C(=O)NCCc2ccccc2)[C@H]2CC[C@@H]1O2 (stereo not given in full) , please.
3.61

Tell me the measured pIC50 of Cc1cc(C)c(NC(=O)C2C(C(=O)O)[C@@H]3CC[C@H]2O3)c(C)c1 (stereo not given in full) , please.
3.47

Tell me the measured pIC50 of O=C(O)C1C(C(=O)Nc2ccc(I)cc2)[C@H]2CC[C@@H]1O2 (stereo not given in full) , please.
3.64

Tell me the measured pIC50 of O=C(O)C1C(C(=O)Nc2cccc(CO)c2)[C@H]2CC[C@@H]1O2 (stereo not given in full) , please.
3.36

Tell me the measured pIC50 of Cc1cccc(NC(=O)C2C(C(=O)O)[C@@H]3CC[C@H]2O3)c1C (stereo not given in full) , please.
3.59

Tell me the measured pIC50 of O=C(O)C1C(C(=O)Nc2ccccc2O)[C@H]2CC[C@@H]1O2 (stereo not given in full) , please.
3.41

Tell me the measured pIC50 of O=C(O)C1C(C(=O)Nc2ccccc2)[C@H]2CC[C@@H]1O2 (stereo not given in full) , please.
3.52

Tell me the measured pIC50 of CC(C)(C)c1ccc(NC(=O)C2C(C(=O)O)[C@@H]3CC[C@H]2O3)cc1 (stereo not given in full) , please.
3.39

Tell me the measured pIC50 of C[C@@]12C(=O)OC(=O)[C@]1(C)[C@H]1CC[C@@H]2O1 , please.
5.05
